Where do these numbers come from? They come from patent US20250333467A1.

Target: T1, human RXFP1 (human, UniProt Q9HBX9 1-757)
T1 sequence (looked up): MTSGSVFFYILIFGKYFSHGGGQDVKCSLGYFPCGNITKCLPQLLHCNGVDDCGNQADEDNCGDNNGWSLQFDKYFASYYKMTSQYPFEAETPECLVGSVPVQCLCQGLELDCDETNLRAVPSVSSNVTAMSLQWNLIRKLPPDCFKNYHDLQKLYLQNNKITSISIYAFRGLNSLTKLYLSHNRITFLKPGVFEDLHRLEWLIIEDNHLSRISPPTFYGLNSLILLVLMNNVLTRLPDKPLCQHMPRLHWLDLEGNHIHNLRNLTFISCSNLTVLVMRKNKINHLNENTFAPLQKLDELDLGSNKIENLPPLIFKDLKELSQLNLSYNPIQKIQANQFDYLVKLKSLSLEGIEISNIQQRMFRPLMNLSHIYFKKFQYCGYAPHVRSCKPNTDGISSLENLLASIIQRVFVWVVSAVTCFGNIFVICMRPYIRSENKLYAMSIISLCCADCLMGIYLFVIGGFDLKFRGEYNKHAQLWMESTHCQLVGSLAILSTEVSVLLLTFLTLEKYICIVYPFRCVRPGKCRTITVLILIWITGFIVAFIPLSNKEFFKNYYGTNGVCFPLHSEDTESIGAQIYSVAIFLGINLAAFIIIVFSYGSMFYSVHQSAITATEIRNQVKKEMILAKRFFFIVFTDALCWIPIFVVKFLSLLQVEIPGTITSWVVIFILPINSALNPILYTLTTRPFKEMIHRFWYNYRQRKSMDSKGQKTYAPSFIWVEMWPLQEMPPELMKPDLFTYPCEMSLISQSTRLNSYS
Experiment: cell-based or functional assay
experimental-endpoint: Potency (cAMP, transient hRXFP1 in HEK293) (nM)
Entry rule: numbers only, all in nM.

The reported Potency (cAMP, transient hRXFP1 in HEK293) of the binder SEQ ID NO: 85 (Fc fusion) DKTHTCPPCPAPEAAGGPSVFLFPPKPKDTLMISRTPEVTCVVVDVSHEDPEVKFNWYVDGVEVHNAKTKPREEQYNSTYRVVSVLTVLHQDWLNGKEYKCKVSNKALAAPIEKTISKAKGQPREPQVYTLPPSRDELTKNQVSLTCLVKGFYPSDIAVEWESNGQPENNYKTTPPVLDSDGSFFLYSKLTVDKSRWQQGNVFSCSVLHEALHSHYTQKSLSLSPGKGGSDSWQEEVIKLCGRELVRAQIAICGKSTASDAAGANADAGARQLYSALANKCCHVGCTKRSLAQFC was 2

The reported Potency (cAMP, transient hRXFP1 in HEK293) of the binder SEQ ID NO: 364 (Fc fusion) DKTHTCPPCPAPEAAGGPSVFLFPPKPKDTLMISRTPEVTCVVVDVSHEDPEVKFNWYVDGVEVHNAKTKPREEQYNSTYRVVSVLTVLHQDWLNGKEYKCKVSNKALAAPIEKTISKAKGQPREPQVYTLPPSRDELTKNQVSLTCLVKGFYPSDIAVEWESNGQPENNYKTTPPVLDSDGSFFLYSKLTVDKSRWQQGNVFSCSVLHEALHSHYTQKSLSLSPGKGGSDSWMEEVIKLCGRELVRAQIAICGKSTGGGEGGGEGGGEGGGQLYSALANKCCHVGCTKRSLARFC was 16
